Assay: Stability of the compound in simulated gastric fluid assessed as compound remaining after 24 hrs by HPLC analysis
assay_readout: remaining at 24 h (%)
Numbers only, in %.

QUERY: Dear colleague, I am looking for the recorded remaining at 24 h of the following compound: CC(C)[C@]12O[C@H]1[C@@H]1O[C@]13[C@]1(O[C@H]1C[C@H]1C4=C(CC[C@@]13C)C(=O)OC4)[C@@H]2OCOP(=O)([O-])[O-].[Na+].[Na+] [MINNELIDE]
RESULT: 0

###

Assay: Stability of the compound in simulated intestinal fluid assessed as compound remaining at pH 7.5 after 4 hrs by HPLC analysis
Type: ADME
Conditions: read-out: Stability
assay_readout: remaining at 4 h
Number first, unit second: that is the form wanted.

QUERY: Dear colleague, I am looking for the recorded remaining at 4 h of the following molecule: CC(C)[C@]12O[C@H]1[C@@H]1O[C@]13[C@]1(O[C@H]1C[C@H]1C4=C(CC[C@@]13C)C(=O)OC4)[C@@H]2OCOP(=O)([O-])[O-].[Na+].[Na+] [MINNELIDE]
RESULT: 100%

###

Assay: Chemical stability of the compound in buffer assessed as compound remaining at pH 9 after 1 hr by HPLC analysis
Type: physicochemical
Details: read-out: Stability
assay_readout: remaining at 1 h (%)
Answers are plain numbers, in %.

QUERY: Dear colleague, I am looking for the recorded remaining at 1 h of the following compound: CC(C)[C@]12O[C@H]1[C@@H]1O[C@]13[C@]1(O[C@H]1C[C@H]1C4=C(CC[C@@]13C)C(=O)OC4)[C@@H]2OCOP(=O)([O-])[O-].[Na+].[Na+] [MINNELIDE]
RESULT: 100

###

Assay: Chemical stability of the compound in buffer assessed as compound remaining at pH 9 after 2 hrs by HPLC analysis
Type: physicochemical
Settings: read-out: Stability
assay_readout: remaining at 2 h

QUERY: Dear colleague, I am looking for the recorded remaining at 2 h of the following compound: CC(C)[C@]12O[C@H]1[C@@H]1O[C@]13[C@]1(O[C@H]1C[C@H]1C4=C(CC[C@@]13C)C(=O)OC4)[C@@H]2OCOP(=O)([O-])[O-].[Na+].[Na+] [MINNELIDE]
RESULT: 100%

###

Test: Chemical stability of the compound in buffer assessed as compound remaining at pH 4 after 8 hrs by HPLC analysis
Type: physicochemical
Settings: read-out: Stability
assay_readout: remaining at 8 h (%)
One number for each entry, in %.

QUERY: Dear colleague, I am looking for the recorded remaining at 8 h of the following molecule: CC(C)[C@]12O[C@H]1[C@@H]1O[C@]13[C@]1(O[C@H]1C[C@H]1C4=C(CC[C@@]13C)C(=O)OC4)[C@@H]2OCOP(=O)([O-])[O-].[Na+].[Na+] [MINNELIDE]
RESULT: 99

###

Assay: Chemical stability of the compound in buffer assessed as compound remaining at pH 6 after 2 hrs by HPLC analysis
Type: physicochemical
Details: read-out: Stability
assay_readout: remaining at 2 h (%)
One number for each entry, in %.

QUERY: Dear colleague, I am looking for the recorded remaining at 2 h of the following compound: CC(C)[C@]12O[C@H]1[C@@H]1O[C@]13[C@]1(O[C@H]1C[C@H]1C4=C(CC[C@@]13C)C(=O)OC4)[C@@H]2OCOP(=O)([O-])[O-].[Na+].[Na+] [MINNELIDE]
RESULT: 100

###

Experiment: Chemical stability of the compound in buffer assessed as compound remaining at pH 7.4 after 8 hrs by HPLC analysis
Type: physicochemical
Settings: read-out: Stability
assay_readout: remaining at 8 h

QUERY: Dear colleague, I am looking for the recorded remaining at 8 h of the following molecule: CC(C)[C@]12O[C@H]1[C@@H]1O[C@]13[C@]1(O[C@H]1C[C@H]1C4=C(CC[C@@]13C)C(=O)OC4)[C@@H]2OCOP(=O)([O-])[O-].[Na+].[Na+] [MINNELIDE]
RESULT: 100%

###

Biological target: alkaline phosphatase (Bos taurus, UniProt P09487)
Sequence (P09487 whole entry): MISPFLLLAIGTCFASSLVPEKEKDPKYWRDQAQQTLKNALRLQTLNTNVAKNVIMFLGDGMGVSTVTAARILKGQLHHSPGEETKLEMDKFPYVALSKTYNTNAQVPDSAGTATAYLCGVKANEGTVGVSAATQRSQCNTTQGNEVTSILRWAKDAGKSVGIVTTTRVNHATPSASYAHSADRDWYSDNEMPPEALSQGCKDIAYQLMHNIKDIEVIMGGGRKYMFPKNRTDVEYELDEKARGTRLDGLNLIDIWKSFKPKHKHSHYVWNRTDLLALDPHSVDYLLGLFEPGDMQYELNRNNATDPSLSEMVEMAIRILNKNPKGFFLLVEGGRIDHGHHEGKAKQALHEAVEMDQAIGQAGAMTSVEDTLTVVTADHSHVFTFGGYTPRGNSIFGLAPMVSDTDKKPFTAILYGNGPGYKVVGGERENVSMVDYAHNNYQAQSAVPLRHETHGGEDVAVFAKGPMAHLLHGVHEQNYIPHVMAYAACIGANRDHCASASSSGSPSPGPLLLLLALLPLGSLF
Assay: Half life of the compound in glycine buffer assessed as bovine intestinal mucosal alkaline phosphatase-mediated compound degradation at pH 9.8
Format: ADME
Settings: cattle
assay_readout: half-life (min)
Numbers only, in min.

QUERY: Dear colleague, I am looking for the recorded half-life of the following molecule: CC(C)[C@]12O[C@H]1[C@@H]1O[C@]13[C@]1(O[C@H]1C[C@H]1C4=C(CC[C@@]13C)C(=O)OC4)[C@@H]2OCOP(=O)([O-])[O-].[Na+].[Na+] [MINNELIDE]
RESULT: 2

###

Assay: Chemical stability of the compound in buffer assessed as compound remaining at pH 6 after 4 hrs by HPLC analysis
Type: physicochemical
Conditions: read-out: Stability
assay_readout: remaining at 4 h
Number first, unit second: that is the form wanted.

QUERY: Dear colleague, I am looking for the recorded remaining at 4 h of the following compound: CC(C)[C@]12O[C@H]1[C@@H]1O[C@]13[C@]1(O[C@H]1C[C@H]1C4=C(CC[C@@]13C)C(=O)OC4)[C@@H]2OCOP(=O)([O-])[O-].[Na+].[Na+] [MINNELIDE]
RESULT: 100%

###

Assay: Chemical stability of the compound in buffer assessed as compound remaining at pH 1 after 4 hrs by HPLC analysis
Assay type: physicochemical
Settings: read-out: Stability
assay_readout: remaining at 4 h (%)
One number for each entry, in %.

QUERY: Dear colleague, I am looking for the recorded remaining at 4 h of the following compound: CC(C)[C@]12O[C@H]1[C@@H]1O[C@]13[C@]1(O[C@H]1C[C@H]1C4=C(CC[C@@]13C)C(=O)OC4)[C@@H]2OCOP(=O)([O-])[O-].[Na+].[Na+] [MINNELIDE]
RESULT: 62

###

Assay: Stability of the compound in simulated intestinal fluid assessed as compound remaining at pH 7.5 after 1 hr by HPLC analysis
Format: ADME
Conditions: read-out: Stability
assay_readout: remaining at 1 h (%)
One number for each entry, in %.

QUERY: Dear colleague, I am looking for the recorded remaining at 1 h of the following compound: CC(C)[C@]12O[C@H]1[C@@H]1O[C@]13[C@]1(O[C@H]1C[C@H]1C4=C(CC[C@@]13C)C(=O)OC4)[C@@H]2OCOP(=O)([O-])[O-].[Na+].[Na+] [MINNELIDE]
RESULT: 100

###

Assay: Chemical stability of the compound in buffer assessed as compound remaining at pH 4 after 4 hrs by HPLC analysis
Type: physicochemical
Settings: read-out: Stability
assay_readout: remaining at 4 h (%)
Numbers only, in %.

QUERY: Dear colleague, I am looking for the recorded remaining at 4 h of the following compound: CC(C)[C@]12O[C@H]1[C@@H]1O[C@]13[C@]1(O[C@H]1C[C@H]1C4=C(CC[C@@]13C)C(=O)OC4)[C@@H]2OCOP(=O)([O-])[O-].[Na+].[Na+] [MINNELIDE]
RESULT: 100

###

Assay: Stability of the compound in simulated intestinal fluid assessed as compound remaining at pH 7.5 after 8 hrs by HPLC analysis
Assay type: ADME
Details: read-out: Stability
assay_readout: remaining at 8 h (%)
Answers are plain numbers, in %.

QUERY: Dear colleague, I am looking for the recorded remaining at 8 h of the following molecule: CC(C)[C@]12O[C@H]1[C@@H]1O[C@]13[C@]1(O[C@H]1C[C@H]1C4=C(CC[C@@]13C)C(=O)OC4)[C@@H]2OCOP(=O)([O-])[O-].[Na+].[Na+] [MINNELIDE]
RESULT: 99

###

Assay: Stability of the compound in simulated gastric fluid assessed as compound remaining after 4 hrs by HPLC analysis
assay_readout: remaining at 4 h

QUERY: Dear colleague, I am looking for the recorded remaining at 4 h of the following molecule: CC(C)[C@]12O[C@H]1[C@@H]1O[C@]13[C@]1(O[C@H]1C[C@H]1C4=C(CC[C@@]13C)C(=O)OC4)[C@@H]2OCOP(=O)([O-])[O-].[Na+].[Na+] [MINNELIDE]
RESULT: 71%
